PROCEDURE_DETAILS: Bioavailability was determined for compound in SD rats when administered perorally at 10 mg/kg
Type: ADME, organism-based
CONDITION_LABEL: Sprague-Dawley, rat, in vivo, po, read-out: Fmean
ASSAY_READOUT: bioavailability (%)
Write down the numeric answer in % and omit the unit.

Data request: Recorded bioavailability of CCc1cc(-c2cc(NC(=O)C3Cc4ccc5ccccc5c4C3)[nH]n2)ccn1 (stereo in doubt; (-)-7) , please.
Data returned: 70

* * *

PROCEDURE_DETAILS: Time required for peak plasma concentration was determined for compound in SD rats when administered perorally at 10 mg/kg
Assay type: ADME, organism-based
Design: dose 10 mg/kg, route oral
CONDITION_LABEL: Sprague-Dawley, rat, po
ASSAY_READOUT: Tmax (h)
Write down the numeric answer in h and omit the unit.

Data request: Recorded Tmax of CCc1cc(-c2cc(NC(=O)C3Cc4ccc5ccccc5c4C3)[nH]n2)ccn1 (stereo in doubt; (-)-7) , please.
Data returned: 2

* * *

TARGET_ENTITY: UniProt:Q15761
Sequence (Q15761 whole entry): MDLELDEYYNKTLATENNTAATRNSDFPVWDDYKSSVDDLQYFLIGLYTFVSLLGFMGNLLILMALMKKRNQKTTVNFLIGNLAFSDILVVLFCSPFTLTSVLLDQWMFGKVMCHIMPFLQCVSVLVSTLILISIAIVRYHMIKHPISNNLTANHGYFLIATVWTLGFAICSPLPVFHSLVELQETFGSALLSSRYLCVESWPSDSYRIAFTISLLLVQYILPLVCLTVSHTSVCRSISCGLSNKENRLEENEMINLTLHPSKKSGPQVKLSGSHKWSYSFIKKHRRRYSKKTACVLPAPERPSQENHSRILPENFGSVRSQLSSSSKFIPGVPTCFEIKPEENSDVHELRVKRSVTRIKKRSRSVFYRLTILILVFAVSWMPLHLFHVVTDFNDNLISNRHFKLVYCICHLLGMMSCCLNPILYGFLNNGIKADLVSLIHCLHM
PROCEDURE_DETAILS: Inhibition of [125I]PYY binding to human recombinant Neuropeptide Y receptor type 5 in LMtk-cells
pKi: −log10 of the molar value.
pKi of 7 or higher: Y. Under 7: N.

1. COc1ccc(-c2cc(NC(=O)C3Cc4ccc5ccccc5c4C3)[nH]n2)cc1OC (racemic) ... Y
2. O=C(O)CCc1cccc(CC(=O)Nc2cc(-c3ccc(Cl)cc3)n[nH]2)c1 ... Y
3. COc1ccc(-c2cc(NC(=O)C3Cc4ccccc4C3)[nH]n2)cc1OC ... Y
4. O=C(Nc1cc(-c2ccccc2)[nH]n1)C1Cc2ccccc2C1 ... N

Data request: In plain terms: is recorded pKi at least 7 for CCc1cc(-c2cc(NC(=O)C3Cc4ccc5ccccc5c4C3)[nH]n2)ccn1 (stereo in doubt; (-)-7) ?
Data returned: Y

Data request: In plain terms: is recorded pKi at least 7 for CCc1cc(-c2cc(NC(=O)C3Cc4ccc5ccccc5c4C3)[nH]n2)ccn1 (racemic) ?
Data returned: Y

Data request: In plain terms: is recorded pKi at least 7 for O=C(Nc1cc(-c2ccccc2Cl)n[nH]1)C1Cc2ccccc2C1 ?
Data returned: N

Data request: In plain terms: is recorded pKi at least 7 for O=C(Nc1cc(-c2ccc(Cl)cc2)n[nH]1)C1Cc2ccccc2C1 ?
Data returned: Y

Data request: In plain terms: is recorded pKi at least 7 for O=C(Nc1cc(-c2ccncc2)[nH]n1)C1Cc2ccc3ccccc3c2C1 (racemic) ?
Data returned: Y

Data request: In plain terms: is recorded pKi at least 7 for CCc1cc(-c2cc(NC(=O)C3Cc4ccc5ccccc5c4C3)[nH]n2)ccn1 (stereo in doubt; (+)-7) ?
Data returned: Y

Data request: In plain terms: is recorded pKi at least 7 for COc1ccc(-c2cc(NC(=O)Cc3ccc4ccccc4c3)[nH]n2)cc1OC ?
Data returned: Y

* * *

PROCEDURE_DETAILS: The concentration in brain was determined in SD rats at 2 hr after peroral administration of 10 mg/kg
Assay type: ADME, organism-based
Set-up: dose 10 mg/kg, route oral
CONDITION_LABEL: Sprague-Dawley, rat, po
ASSAY_READOUT: concentration at 2 h (nM)
Write down the numeric answer in nM and omit the unit.

Data request: Recorded concentration at 2 h of CCc1cc(-c2cc(NC(=O)C3Cc4ccc5ccccc5c4C3)[nH]n2)ccn1 (stereo in doubt; (-)-7) , please.
Data returned: 450

# credit: ChEMBL document CHEMBL1145971
